Experiment: Activators via SNCA 5'UTR binding, MLPCN (AID 1814)
Details: alpha-synuclein 5'UTR reporter, activators screen; tested at 7.5 µM
In all, about 300,000 compounds went through this assay and about 22,000 (7.3%) were called active. Not shown: some 2% with an inconclusive outcome. No stated cut-off is given here; in the data, active means activity score below about -60%; inconclusive means mostly about -28% to -61%; inactive means positive scores. Many of the other results were omitted from the sample, so actives are more common in it than they were.
Your reply should match one of these outcome classes. label 1 = active, label 0 = inactive

**Query** Outcome logged for COc1ccc(Nc2oc(-c3ccccc3Cl)nc2C#N)cc1 in this assay:
**Result** label 1

**Query** Recorded test outcome, item O=C(NC1CC1)c1ccc(-c2ccccc2)cc1
**Result** label 1

**Query** What classification did COc1ccccc1-c1nnc(-c2ccc(F)cc2)o1 end up with in this test?
**Result** label 1

**Query** Returns: the outcome recorded for Cc1ccnc(NC(=O)c2ccoc2C)c1 in this assay.
**Result** label 1

**Query** Answer briefly: the call reported for COC(=O)C1C(=O)c2c([nH]c(C(=O)OCCSC)c2C)CC1C (stereo not drawn) in this assay.
**Result** label 1

**Query** Write down the call the test reported for this compound. Item: Cc1cccc(-n2c(C)cc(/C=N\NC(=O)c3cccs3)c2C)c1
**Result** label 1

**Query** Dear colleague, could you share the recorded outcome for Cc1ccoc1C(=O)Nc1cccc(Oc2ccccc2)c1 when you have a moment?
**Result** label 1

**Query** # fetch the recorded call for O=C(Cn1ncc(N2CCCC2)c(Br)c1=O)c1ccc(Cl)cc1 here
**Result** label 1

**Query** Given COc1ccc(NC(=O)/C(Cl)=C(/Cl)S(=O)Cc2ccc(C)cc2)cn1 (stereo not drawn) , state the outcome it received in this test.
**Result** label 0

**Query** What is the recorded call for this compound in the test? O=C(N/N=C/C=C/c1ccco1)c1cccs1
**Result** label 1

**Query** What was the test verdict on Cc1ccc(NC(=O)OCc2cncs2)cc1 ?
**Result** label 1

**Query** Field: outcome | Entry: O=C(Nc1ccc([N+](=O)[O-])cc1)OCCc1ccccn1
**Result** label 1

**Query** Record request — test call for Cc1nc(-c2ccccc2)sc1C1(C)CC(c2cccnc2)=NO1 (stereo not drawn)
**Result** label 1

**Query** Which outcome was assigned to COc1ccc(/C=C/C(=O)Nc2c(C)nn(C)c2C)cc1COc1ccc(Br)cc1 in this test?
**Result** label 0

**Query** Call for entry Cc1noc(C)c1/C=N/Nc1ccc2ccccc2n1 :
**Result** label 1

**Query** Short answer needed: outcome of this test for CSc1ccccc1-c1nnc(-c2ccc(Cl)cc2)o1 ?
**Result** label 1

**Query** // param item: Cc1ccc(C2CC(c3cccc(NS(C)(=O)=O)c3)=NN2S(C)(=O)=O)cc1 (stereo not drawn) ; yields the recorded call
**Result** label 1

**Query** Recorded test outcome, item O=C(NCCCn1ccnc1)c1cc(-c2ccccc2)on1
**Result** label 1
